These data points were gathered from patent US20190359609A1.

target: OGA (Homo sapiens, UniProt O60502); construct: endogenous in cells; host or cells: HEK293 cells inducible for P301L mutant human Tau (2N4R); assay: OGA cellular assay: ICC detection of O-GlcNAcylated proteins in HEK293 cells inducible for P301L mutant human Tau; format: cell-based; settings: 6 hours incubation
Documented Emax across a set of molecules
# output: bare number, implied unit %

{"molecule": "CC(=O)Nc1ncc(CN2CCCC(Cc3cc4ncccc4n3C)C2)s1 (stereo not drawn) [Compound 26]", "study_system": "OGA (Homo sapiens, UniProt O60502)", "Emax / %": 118}
{"molecule": "CC(=O)Nc1ncc(CN2CCCC(c3cc4ncccc4[nH]3)C2)s1 (single isomer, unassigned) [Compound 6]", "study_system": "OGA (Homo sapiens, UniProt O60502)", "Emax / %": 66.6}

Lab note: next molecule to report on.
Return Emax measured with OGA (Homo sapiens, UniProt O60502) given this molecule: CC(c1ccc2c(c1)OCCO2)N1CCCC(c2cc3ncccc3[nH]2)C1 (racemic) [Compound 33] 107

###

target: recombinant human Meningioma Expressed Antigen 5 (MGEA5), also referred to as O-GlcNAcase (OGA) (Homo sapiens, UniProt O60502); construct: Full length OGA enzyme was purchased at OriGene (cat # TP322411); purchased OriGene TP322411; assay: OGA biochemical assay: inhibition of FM-GlcNAc hydrolysis, fluorescence (protocol A 10 nM OGA, 1 h; protocol B 2 nM OGA, 6 h); details: Enzymatic protocol B (2 nM OGA, 6 h); read-out: Enzymatic Emax (%)
Documented Emax across a set of compounds
# output: bare number, implied unit %

// lookup Emax for "CC(=O)Nc1ncc(CN2CC[C@@H](Cc3cc4ncccc4n3C)C2)s1" 102

// lookup Emax for CC(=O)Nc1ncc(CN2CCCC(c3cc4ncccc4[nH]3)C2)s1 (single isomer, unassigned) 79.1

// lookup Emax for CC(c1ccc2c(c1)OCO2)N1CCCC(c2cc3ncccc3n2C)C1 (racemic) 99

// lookup Emax for CC(c1ccc2c(c1)OCCO2)N1CCCC(c2cc3ncccc3[nH]2)C1 (single isomer, unassigned) [Compound 34] 93.8

###

biological target: OGA (Homo sapiens); construct: endogenous in cells; host or cells: HEK293 cells inducible for P301L mutant human Tau (2N4R); experiment: OGA cellular assay: ICC detection of O-GlcNAcylated proteins in HEK293 cells inducible for P301L mutant human Tau; format: cell-based; conditions: 6 hours incubation, read-out: Cellular hOGA, pEC50 (converted)
measure_name: EC50 (nM)
# output: bare number, implied unit nM

Worked examples, 2 compounds total:
{"compound": "CC(=O)Nc1ncc(CN2CC[C@@H](C)[C@H](c3cc4ncccc4[nH]3)C2)s1 (racemic)", "measure_name": "EC50", "number": 20.9}
{"compound": "CC(=O)Nc1ncc(CN2CCCC(c3cc4ncccc4[nH]3)C2)s1 (single isomer, unassigned)", "measure_name": "EC50", "number": 3630}

// lookup EC50 for CC(c1ccc2c(c1)OCCO2)N1CCCC(c2cc3ncccc3[nH]2)C1 (racemic) 417

###

Target: recombinant human Meningioma Expressed Antigen 5 (MGEA5), also referred to as O-GlcNAcase (OGA) (Homo sapiens)
Construct: Full length OGA enzyme was purchased at OriGene (cat # TP322411); purchased OriGene TP322411
Sequence (O60502 1-916): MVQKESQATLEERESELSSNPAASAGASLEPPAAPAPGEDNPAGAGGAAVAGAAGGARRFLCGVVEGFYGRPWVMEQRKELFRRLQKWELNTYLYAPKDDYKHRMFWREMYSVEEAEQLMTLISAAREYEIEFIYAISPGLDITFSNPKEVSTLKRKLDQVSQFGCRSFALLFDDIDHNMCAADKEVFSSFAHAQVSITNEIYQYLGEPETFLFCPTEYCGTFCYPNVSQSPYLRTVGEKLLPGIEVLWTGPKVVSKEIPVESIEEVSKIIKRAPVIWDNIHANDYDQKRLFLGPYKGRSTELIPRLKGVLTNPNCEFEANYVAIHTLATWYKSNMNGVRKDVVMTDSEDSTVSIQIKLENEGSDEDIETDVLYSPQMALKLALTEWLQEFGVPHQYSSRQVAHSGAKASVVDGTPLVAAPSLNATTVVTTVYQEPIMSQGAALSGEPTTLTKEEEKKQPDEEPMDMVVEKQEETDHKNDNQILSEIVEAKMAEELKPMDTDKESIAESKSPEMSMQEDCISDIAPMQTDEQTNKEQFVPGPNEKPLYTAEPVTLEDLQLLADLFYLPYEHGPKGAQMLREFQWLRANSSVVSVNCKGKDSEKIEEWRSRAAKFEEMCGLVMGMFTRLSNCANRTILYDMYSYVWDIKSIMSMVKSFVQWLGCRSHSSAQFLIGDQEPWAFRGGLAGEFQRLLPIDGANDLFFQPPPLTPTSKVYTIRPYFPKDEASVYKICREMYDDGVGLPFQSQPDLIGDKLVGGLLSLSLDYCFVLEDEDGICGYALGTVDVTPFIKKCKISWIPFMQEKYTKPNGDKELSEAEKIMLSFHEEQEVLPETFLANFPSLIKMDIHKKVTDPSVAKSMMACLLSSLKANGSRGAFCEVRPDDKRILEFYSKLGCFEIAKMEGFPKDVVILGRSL
Assay: OGA biochemical assay: inhibition of FM-GlcNAc hydrolysis, fluorescence (protocol A 10 nM OGA, 1 h; protocol B 2 nM OGA, 6 h)
Conditions: Enzymatic protocol A (10 nM OGA, 1 h); read-out: Enzymatic hOGA; pIC50 (converted)
measure_name: IC50 (nM)
# output: bare number, implied unit nM

Worked examples, 5 compounds total:
{"compound": "CC(=O)Nc1ncc(CN2CCC[C@H](c3cc4ncccc4[nH]3)C2)s1 (single isomer, unassigned)", "measure_name": "IC50", "number": 18.2}
{"compound": "CC(=O)Nc1ncc(CN2CCCC(c3nc4cccnc4n3C)C2)s1 (centres unmarked)", "measure_name": "IC50", "number": 302}
{"compound": "CC(=O)Nc1ncc(CN2CCCC(c3nc4ncccc4[nH]3)C2)s1 (single isomer, unassigned) [Compound 19]", "measure_name": "IC50", "number": 148}
{"compound": "CC(=O)Nc1ncc(CN2CCCC(c3nc4ncccc4[nH]3)C2)s1 (single isomer, unassigned) [Compound 18]", "measure_name": "IC50", "number": 24500}
{"compound": "CC(=O)Nc1ncc(S(=O)(=O)N2CCCC(c3nc4ncccc4[nH]3)C2)s1 (centres unmarked)", "measure_name": "IC50", "number": 1860}

// lookup IC50 for CC(=O)Nc1ncc(CN2CC[C@@H](C)[C@H](c3cc4ncccc4[nH]3)C2)s1 (racemic) 41.7

// lookup IC50 for CC(=O)Nc1ncc(CN2CCCC(c3nc4ncccc4n3C)C2)s1 (centres unmarked) 155

// lookup IC50 for CC(=O)Nc1ncc(CN2CCCC(c3cc4cccnc4[nH]3)C2)s1 (centres unmarked) 112

###

target: recombinant human Meningioma Expressed Antigen 5 (MGEA5), also referred to as O-GlcNAcase (OGA) (Homo sapiens); construct: Full length OGA enzyme was purchased at OriGene (cat # TP322411); purchased OriGene TP322411; experiment: OGA biochemical assay: inhibition of FM-GlcNAc hydrolysis, fluorescence (protocol A 10 nM OGA, 1 h; protocol B 2 nM OGA, 6 h); details: Enzymatic protocol B (2 nM OGA, 6 h); read-out: Enzymatic hOGA; pIC50 (converted)
Each record is given label 1 if its reported IC50 is strictly below 800 nM. Records at or above 800 nM are given label 0.

{"molecule": "CC(=O)Nc1ncc(CN2CC[C@@H](Cc3cc4ncccc4n3C)C2)s1 [Compound 58]", "classification": "label 1"}
{"molecule": "CC(c1ccc2c(c1)OCO2)N1CCCC(c2cc3ncccc3n2C)C1 (single isomer, unassigned) [Compound 46]", "classification": "label 0"}
{"molecule": "CC(=O)Nc1ncc(S(=O)(=O)N2CCCC(c3cc4ncccc4[nH]3)C2)s1 (single isomer, unassigned) [Compound 4]", "classification": "label 1"}

Say whether its IC50 is strictly beneath 800 nM. Entry: Cn1c(C2CCCN(Cc3cnc4c(c3)OCCO4)C2)cc2ncccc21 (centres unmarked) [Compound 55] label 0

Say whether its IC50 is strictly beneath 800 nM. Entry: O=C(CN1CCCC(c2cc3ncccc3[nH]2)C1)N1CCCC1 (centres unmarked) [Compound 49] label 0

Say whether its IC50 is strictly beneath 800 nM. Entry: CC(c1ccc2c(c1)OCO2)N1CCCC(c2cc3ncccc3[nH]2)C1 (single isomer, unassigned) [Compound 30] label 0

Say whether its IC50 is strictly beneath 800 nM. Entry: CC(=O)Nc1ncc(CN2CCC(Cc3cc4ncccc4n3C)C2)s1 (centres unmarked) [Compound 25] label 1

###

Documented log10 IC50 across a set of compounds
molecular target: recombinant human Meningioma Expressed Antigen 5 (MGEA5), also referred to as O-GlcNAcase (OGA) (Homo sapiens, UniProt O60502); construct: Full length OGA enzyme was purchased at OriGene (cat # TP322411); purchased OriGene TP322411; experiment: OGA biochemical assay: inhibition of FM-GlcNAc hydrolysis, fluorescence (protocol A 10 nM OGA, 1 h; protocol B 2 nM OGA, 6 h); details: Enzymatic protocol B (2 nM OGA, 6 h); read-out: Enzymatic hOGA; pIC50 (converted)
Note: values are log10 of IC50 expressed in µM.

// lookup log10 IC50 for CC(c1ccc2c(c1)OCO2)N1CCCC(c2cc3ncccc3n2C)C1 (single isomer, unassigned) [Compound 47] 0.19

// lookup log10 IC50 for CC(=O)Nc1ncc(CN2CCC(Cc3cc4ncccc4[nH]3)C2)s1 (stereo not drawn) -2.67

// lookup log10 IC50 for Cn1c(C2CCCN(Cc3ccc4nccnc4c3)C2)cc2ncccc21 (stereo not drawn) [Compound 41] 0.10

// lookup log10 IC50 for CC(=O)Nc1ncc(CN2CCCC(c3cc4ncccc4[nH]3)C2)s1 (single isomer, unassigned) 0.43

// lookup log10 IC50 for CC(=O)Nc1ncc(CN2CCNC(c3cc4ncccc4[nH]3)C2)s1 (stereo not drawn) 0.82

// lookup log10 IC50 for Cn1c(C2CCCN(Cc3nc4ccccc4n3C)C2)cc2ncccc21 (stereo not drawn) -0.08
